B1: Double-stranded RNA-binding protein Staufen homolog 1, residues 183 to 249; numbered along this chain, O95793 (parent)
chain: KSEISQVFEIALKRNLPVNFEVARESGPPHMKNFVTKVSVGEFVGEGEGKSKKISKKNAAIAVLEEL

# Variants of: B1
# test-protocol: abundance fitness (aPCA) (normalised: wild type 0, dead -1); higher = more abundant; growth selection in yeast, the domain comes from the species named
# setup-conditions: Homo sapiens
Entry flag: Y if abundance fitness reaches -0.4; N if it does not.

mutation_name=R24Y group_label=Y
mutation_name=F34W group_label=Y
mutation_name=L67M group_label=Y
mutation_name=E21P group_label=N
mutation_name=S39N group_label=Y
mutation_name=S55K group_label=N
mutation_name=K50R group_label=Y
mutation_name=S55M group_label=N
mutation_name=A11Y group_label=N
mutation_name=E48M group_label=Y
mutation_name=K13Y group_label=Y
mutation_name=K56F group_label=N
mutation_name=F43D group_label=N
mutation_name=E21W group_label=Y
mutation_name=L67H group_label=Y
mutation_name=P29V group_label=Y
